- System: COLO 205
- TEST NAME: NCI tumour cell line growth inhibition, 48 h
Calls of active or inactive are those of the source. Cut-off read from the data, not from the text of the source: active = GI50 up to about 1.1 µM and inactive = higher.
Write down one outcome, taken from 1 = active, 0 = inactive

Some entries whose results are on file:
                                   compound  assay_target  cat
0                    CSC(=N/C=C/c1ccccc1)SC      COLO 205    0
1  NC(=O)C(c1ccccc1)N1OC2C(=O)N(c3cccc4ccccc34)C(=O)C2C1c1c2ccccc2c(Cl)c2ccccc12 (stereo not given)      COLO 205    0
2  CCOC(=O)C1N(S(=O)(=O)c2ccc(C)cc2)CCC12C(c1ccc(OC)cc1)NC1CCCCC12 (stereo not given)      COLO 205    0
3  c1ccc2c(c1)[nH]c1c2cc[n+]2cc3c(cc12)CCCC3      COLO 205    1

Please state the recorded outcome for this compound: Cc1ccc(C2=NN(C)COC2C(F)(F)F)cc1 (stereo not given)
0

====

- Test system: UO-31
- TEST NAME: NCI tumour cell line growth inhibition, 48 h
The source made the active and inactive calls. Rule as the data show it: active = GI50 up to about 1.1 µM and inactive = higher. Residues, ends and D or L forms follow the SMILES beside them. *: point of attachment. Boc = CC(C)(C)OC(=O)*; Bn = c1ccc(C*)cc1
Parameter GI50: see the listing below.

As a guide, the following entries are already answered.
COMPOUND	REPORTED
O=C1O[C@H](c2ccc3c(c2)OCO3)[C@H]2CO[C@@H](c3ccc4c(c3)OCO4)[C@@H]12	> 100 µM (inactive)
CNC(=O)C(CC(C)C)NC(=O)C(C)NC(=O)C(Cc1ccc(OCc2ccccc2)cc1)NC(=O)C(COCc1ccccc1)NC(=O)OC(C)(C)C (configuration not stated) (Boc-S(Bn)Y(Bn)AL-NHMe; configuration not given here)	> 100 µM (inactive)
O=C(O)CCS/C(=C\C(SCCC(=O)O)c1ccc(Cl)cc1)c1ccc(Cl)cc1 (configuration not stated)	78 µM (inactive)
CCOc1ccccc1NC(=O)CCc1nnc(S)[nH]1	> 100 µM (inactive)
Cc1cc(C)cc(NC(N)=S)c1	> 100 µM (inactive)

# query: GI50 of entry "CSC1=N/C(=C\c2ccc(C)cc2)C(=O)N1CN1CCCCC1"
37.2 µM (inactive)

# query: GI50 of entry "N/C(=N\c1ccc(Cl)cc1)NS(=O)(=O)c1ccc(-c2ccccn2)s1"
17.7 µM (inactive)

====

- System: LXFL 529
- TEST NAME: NCI tumour cell line growth inhibition, 48 h
The source made the active and inactive calls. Cut-off read from the data, not from the text of the source: active = GI50 up to about 1.1 µM and inactive = higher.
Parameter GI50: see the listing below.

As a guide, the following entries are already answered.
>>> df
                                   molecule             reported
0       CCOC(=O)/C(=C/c1ccco1)P(=O)(OCC)OCC  > 100 µM (inactive)
1     Cc1cc2c(C)nn(Cc3ccccc3)c2c(C(N)=O)c1C  > 100 µM (inactive)
2  Clc1ncnc2c1ncn2CCCCCCCCCCCCn1cnc2c(Cl)ncnc21   4.44 µM (inactive)

# query: GI50 of entry "CC(C)(O)[C@@H]1CC[C@@]2(C)CCC[C@H](O)[C@H]2C1"
> 100 µM (inactive)

# query: GI50 of entry CCCCCCCCCCCCCCCC(=O)OCC1OC(OC)C(NC(=O)N(CCCl)N=O)C(O)C1O (stereo unspecified)
16.3 µM (inactive)

# query: GI50 of entry CC1CN(c2ccc(Cl)cc2)CC(C)(C)OC(=O)O1 (stereo unspecified)
> 100 µM (inactive)

====

Parameter GI50: see the listing below.
- Tested on: MCF7
- TEST NAME: NCI tumour cell line growth inhibition, 48 h
The source made the active and inactive calls. Cut-off read from the data, not from the text of the source: active = GI50 up to about 1.1 µM and inactive = higher.

As a guide, the following entries are already answered.
                                   compound            reported
0  CCOC(=O)c1c(-c2ccc(OC)cc2)c(C#N)c(=S)n(C2OC(CO)C(O)C(O)C2O)c1-c1ccccc1 (stereo not given)  39.4 µM (inactive)
1  N=c1nc2n(cc1F)[C@@H]1O[C@H](CO)[C@@H](O)[C@@H]1O2  1.14 µM (inactive)
2  CCOc1cc(C2SCC(=O)N2c2nc3cc4sc(N5C(=O)CSC5c5ccc(O)c(OCC)c5)nc4cc3s2)ccc1O (stereo not given)  9.86 µM (inactive)

# query: GI50 of entry COC(=O)CNCC1OC2OC(C)(C)OC2C1N=[N+]=[N-] (stereo not given)
> 100 µM (inactive)

# query: GI50 of entry "CC1(C)O[C@H]2Cn3c(c(C#N)c4ccccc43)[C@H]2O1"
> 100 µM (inactive)

====

- System: PC-3
- TEST NAME: NCI tumour cell line growth inhibition, 48 h
Calls of active or inactive are those of the source. Rule as the data show it: active = GI50 up to about 1.1 µM and inactive = higher.
ENDPOINT NAME: GI50

As a guide, the following entries are already answered.
                                   molecule  endpoint_name            reported
0  O=[N+]([O-])C(=C/c1cccc2ccccc12)/C(=C\c1cccc2ccccc12)[N+](=O)[O-]           GI50  5.24 µM (inactive)
1  CC1=C(C)CC2(C=C(C(C)(C)C)C(=O)C(C(C)(C)C)=C2)SC1           GI50  26.7 µM (inactive)
2  NS(=O)(=O)c1nnc(NC(=S)NC(=O)Nc2ccc(Cl)c(Cl)c2)s1           GI50  27.3 µM (inactive)
3  O=C(NCCN(CCNC(=O)c1cccc(O)c1O)CCNC(=O)c1cccc(O)c1O)c1cccc(O)c1O [TRENCAM]           GI50  11.4 µM (inactive)

Okay, now this molecule:
# query: GI50 of entry CCOC(=O)C(Cl)(NC(=O)OCc1ccccc1)C(F)(F)F (stereo not given)
> 100 µM (inactive)

====

- Tested on: NCI-H460
- TEST NAME: NCI tumour cell line growth inhibition, 48 h
Active and inactive are the calls of the source. No stated cut-off is given here; in the data, active = GI50 up to about 1.1 µM and inactive = higher.
Parameter GI50: see the listing below.

As a guide, the following entries are already answered.
>>> df
                                   compound  assay_target            reported
0  COc1ccc2ccccc2c1C1NC(=O)c2ccccc2N1 (stereo not given)      NCI-H460  1.26 µM (inactive)
1       O=C1C(c2ccccc2)=C(c2ccccc2)C1(Cl)Cl      NCI-H460   5.9 µM (inactive)
2  O=C1/C(=C/c2cccc(Oc3ccccc3)c2)N=C(c2ccccc2)N1c1nc2ccc(Sc3ccccc3)cc2[nH]1      NCI-H460    23 µM (inactive)
3  c1ccc([P+](CCC[P+](c2ccccc2)(c2ccccc2)c2ccccc2)(c2ccccc2)c2ccccc2)cc1      NCI-H460    20 µM (inactive)

# query: GI50 of entry "Cn1c2c(c3c(=O)[nH]ncc31)CCCc1ccccc1-2"
23.6 µM (inactive)

====

- Tested on: A549
- TEST NAME: NCI tumour cell line growth inhibition, 48 h
Active and inactive are the calls of the source. Cut-off read from the data, not from the text of the source: active = GI50 up to about 1.1 µM and inactive = higher.
Write down one outcome, taken from t = active, f = inactive

Some entries whose results are on file:
In [3]: df
Out[3]:
                                   compound  cat
0  O=C1NC(=O)C(c2c[nH]c3cc(Br)ccc23)=C1c1cn(C(c2ccccc2)(c2ccccc2)c2ccccc2)cn1    f
1  CC(C)(C)c1nc2c(o1)/C(=N\c1ccc(F)cc1)c1ccccc1C2=O    f
2               NC(=O)/C=C/c1c[nH]c2nccnc12    f

Please state the recorded outcome for this compound: COC(=O)c1ccccc1CC1Cc2cccc(C)c2C1=O (configuration not stated)
f

Please state the recorded outcome for this compound: CC1=C(C#N)c2nc3ccccc3n2C(=O)C1(C)CCO (configuration not stated)
f

Please state the recorded outcome for this compound: COc1cc(C2C(Cl)C(=O)N2NC(=O)c2ccc(NC(C)=O)cc2)cc(Br)c1O (configuration not stated)
f

Please state the recorded outcome for this compound: "O=C(CNCc1ccccc1)Oc1c(Cl)c(Cl)c(Cl)c(Cl)c1Cl"
f

Please state the recorded outcome for this compound: "N/C(=N\c1ccc(Cl)cc1)NS(=O)(=O)c1ccc(-c2ccccn2)s1"
f

Please state the recorded outcome for this compound: "CNC(=O)c1nnn(Cc2ccccc2)c1S"
f

Please state the recorded outcome for this compound: "Cc1ccccc1CN1CC2=C(CCN(Cc3ccccc3)C2=O)N2CCN=C12"
f

Please state the recorded outcome for this compound: "CC1=NN(C(=O)c2ccccc2O)C(=O)/C1=C/c1ccc([N+](=O)[O-])cc1"
t

Please state the recorded outcome for this compound: "O=C(O)CNCCc1ccccc1"
f

Please state the recorded outcome for this compound: "CC(C)(C)CC(C)(C)c1cc(O)c(O)c(CN2CCCCC2)c1"
f

Hey, just so you know, these numbers are from ChEMBL document CHEMBL1201862.
